Origin of the recorded values: the supplement of paper PMC11061612

# System: L-1236 (Hodgkin's Lymphoma)
# Experiment description: Bliss excess, mean over the matrix (fraction); higher = more synergy
Entries and their Bliss excess
Quantity name: Bliss excess

Molecule	Quantitative result
CC(=O)c1c(C)c2cnc(Nc3ccc(N4CCNCC4)cn3)nc2n(C2CCCC2)c1=O [Palbociclib] + Cn1cnc2c(F)c(Nc3ccc(Br)cc3Cl)c(C(=O)NOCCO)cc21 [Selumetinib] (first compound max 10 µM, 7x7, partner max 10 µM)	-0.0841
CN(C)CCCOc1ccc(-c2ccc3ncc4c(c3c2)n(C2CCOCC2)c(=O)n4C)cn1 [AZD0156] + C=CCn1c(=O)c2cnc(Nc3ccc(N4CCN(C)CC4)cc3)nc2n1-c1cccc(C(C)(C)O)n1 [AZD1775] (first compound max 1 µM, partner max 1 µM)	-0.0514
C=CCn1c(=O)c2cnc(Nc3ccc(N4CCN(C)CC4)cc3)nc2n1-c1cccc(C(C)(C)O)n1 [AZD1775] + C1CN(CCC1(C(=O)N[C@@H](CCO)C2=CC=C(C=C2)Cl)N)C3=NC=NC4=C3C=CN4 [Capivasertib] (first compound max 3 µM, partner max 3 µM)	-0.097

###

Entries and their Bliss excess
# System: REH (B-Lymphoblastic Leukemia)
# Experiment description: Bliss excess, mean over the matrix (fraction); higher = more synergy

Compound	Bliss excess
Cc1c2c(nn1C)CSCc1cc(n(C)n1)CSc1cc(c3ccccc3c1)OCCCc1c(C(=O)O)n(C)c3c-2c(Cl)ccc13 [AZD5991] + C1CN(CCC1(C(=O)N[C@@H](CCO)C2=CC=C(C=C2)Cl)N)C3=NC=NC4=C3C=CN4 [Capivasertib] (first compound max 1 µM, 7x7, partner max 3 µM)	-0.0557
C[C@@H]1COCCN1c1cc(C2([S@](C)(=N)=O)CC2)nc(-c2ccnc3[nH]ccc23)n1 [AZD6738] + Nc1ccn([C@@H]2O[C@H](CO)[C@@H](O)C2(F)F)c(=O)n1 [Gemcitabine] (first compound max 10 µM, 7x7, partner max 0.3 µM)	0.0497

###

# Test system: LN-229 (Glioblastoma)
# Experiment description: combination Emax (second highest fraction inhibited in the dose matrix, 72 h); higher = more inhibition; extreme values may be limits of the assay
Entries and their combination Emax
Quantity name: combination Emax

Molecule	Quantitative result
Cc1c2c(nn1C)CSCc1cc(n(C)n1)CSc1cc(c3ccccc3c1)OCCCc1c(C(=O)O)n(C)c3c-2c(Cl)ccc13 [AZD5991] + C[C@@H](Nc1cc(F)cc(F)c1)c1cc(C(=O)N(C)C)cc2c(=O)cc(N3CCOCC3)oc12 [AZD8186] (first compound max 1 µM, 7x7, partner max 3 µM)	0.546
CCc1c2c(nc3ccc(O)cc13)-c1cc3c(c(=O)n1C2)COC(=O)[C@]3(O)CC [SN-38] + CN(C)CCCOc1ccc(-c2ccc3ncc4c(c3c2)n(C2CCOCC2)c(=O)n4C)cn1 [AZD0156] (first compound max 0.3 µM, 7x7, partner max 1 µM)	0.283

###

# Test system: GP5d (Colorectal Carcinoma)
# Experiment description: combination Emax (second highest fraction inhibited in the dose matrix, 72 h); higher = more inhibition; extreme values may be limits of the assay
Entries and their combination Emax
Quantity name: combination Emax

Compound	Target or system	Quantity name	Quantitative result
COc1cccc(OCCCN)c1-c1cc(Nc2cnc(C#N)cn2)n[nH]1 [Prexasertib] + O=C(c1cc(Cc2n[nH]c(=O)c3ccccc23)ccc1F)N1CCN(C(=O)C2CC2)CC1 [Olaparib] (first compound max 1 µM, 7x7, partner max 10 µM)	GP5d (Colorectal Carcinoma)	combination Emax	0.945
Cc1c2c(nn1C)CSCc1cc(n(C)n1)CSc1cc(c3ccccc3c1)OCCCc1c(C(=O)O)n(C)c3c-2c(Cl)ccc13 [AZD5991] + CN(C)CCCOc1ccc(-c2ccc3ncc4c(c3c2)n(C2CCOCC2)c(=O)n4C)cn1 [AZD0156] (first compound max 1 µM, 7x7, partner max 1 µM)	GP5d (Colorectal Carcinoma)	combination Emax	0.817
CN(CCO)CC[C@H](CSc1ccccc1)Nc1ccc(S(=O)(=O)NC(=O)c2ccc(N3CCC([C@@H](O)c4ccccc4-c4ccc(Cl)cc4)CC3)cc2)cc1S(=O)(=O)C(F)(F)F [AZD4320] + CCN(CCO)CCCOc1ccc2c(Nc3cc(CC(=O)Nc4cccc(F)c4)[nH]n3)ncnc2c1 [AZD2811] (first compound max 1 µM, 7x7, partner max 1 µM)	GP5d (Colorectal Carcinoma)	combination Emax	0.566
C=CCn1c(=O)c2cnc(Nc3ccc(N4CCN(C)CC4)cc3)nc2n1-c1cccc(C(C)(C)O)n1 [AZD1775] + C[C@@H]1COCCN1C2=NC(=NC(=C2)C3(CC3)[S@](=N)(=O)C)C4=C5C=CNC5=NC=C4 [AZD6738] (first compound max 1 µM, partner max 10 µM)	GP5d (Colorectal Carcinoma)	combination Emax	0.927
CN(CCO)CC[C@H](CSc1ccccc1)Nc1ccc(S(=O)(=O)NC(=O)c2ccc(N3CCC([C@@H](O)c4ccccc4-c4ccc(Cl)cc4)CC3)cc2)cc1S(=O)(=O)C(F)(F)F [AZD4320] + C=CCn1c(=O)c2cnc(Nc3ccc(N4CCN(C)CC4)cc3)nc2n1-c1cccc(C(C)(C)O)n1 [AZD1775] (first compound max 1 µM, partner max 1 µM)	GP5d (Colorectal Carcinoma)	combination Emax	0.782
CN(CCO)CC[C@H](CSc1ccccc1)Nc1ccc(S(=O)(=O)NC(=O)c2ccc(N3CCC([C@@H](O)c4ccccc4-c4ccc(Cl)cc4)CC3)cc2)cc1S(=O)(=O)C(F)(F)F [AZD4320] + CN(C)CCCOc1ccc(-c2ccc3ncc4c(c3c2)n(C2CCOCC2)c(=O)n4C)cn1 [AZD0156] (first compound max 1 µM, 7x7, partner max 1 µM)	GP5d (Colorectal Carcinoma)	combination Emax	0.323
COc1nnc2ccc(N3CCC(c4ccc(OCCN5CCN(C)C(=O)[C@H]5C)cc4)CC3)nn12 [AZD5153] + C[C@@H]1COCCN1C2=NC(=NC(=C2)C3(CC3)[S@](=N)(=O)C)C4=C5C=CNC5=NC=C4 [AZD6738] (first compound max 1 µM, 7x7, partner max 10 µM)	GP5d (Colorectal Carcinoma)	combination Emax	0.855

###

# Test system: SK-PN-DW (Other Solid Carcinomas)
# Experiment description: Bliss excess, mean over the matrix (fraction); higher = more synergy

Molecule	Bliss excess
NC1(C(=O)N[C@@H](CCO)c2ccc(Cl)cc2)CCN(c2ncnc3[nH]ccc23)CC1 [Capivasertib] + C[C@@H]1COCCN1C2=NC(=NC(=C2)C3(CC3)[S@](=N)(=O)C)C4=C5C=CNC5=NC=C4 [AZD6738] (first compound max 10 µM, 7x7, partner max 10 µM)	-0.0412
CC1(C)CCC(CN2CCN(c3ccc(C(=O)NS(=O)(=O)c4ccc(NCC5CCOCC5)c([N+](=O)[O-])c4)c(Oc4cnc5[nH]ccc5c4)c3)CC2)=C(c2ccc(Cl)cc2)C1 [Venetoclax] + CS(=O)(=O)CCNCc1ccc(-c2ccc3ncnc(Nc4ccc(OCc5cccc(F)c5)c(Cl)c4)c3c2)o1 [Lapatinib] (first compound max 1 µM, 7x7, partner max 10 µM)	-0.0284

###

Entries and their Bliss excess
# Test system: SU-DHL-10 (B-Cell Non-Hodgkin's Lymphoma)
# Experiment description: Bliss excess, mean over the matrix (fraction); higher = more synergy

Compound	Bliss excess
CN(C)CCCOc1ccc(-c2ccc3ncc4c(c3c2)n(C2CCOCC2)c(=O)n4C)cn1 [AZD0156] + CCN(CCO)CCCOc1ccc2c(Nc3cc(CC(=O)Nc4cccc(F)c4)[nH]n3)ncnc2c1 [AZD2811] (first compound max 1 µM, 7x7, partner max 1 µM)	-0.0813
COc1nnc2ccc(N3CCC(c4ccc(OCCN5CCN(C)C(=O)[C@H]5C)cc4)CC3)nn12 [AZD5153] + CC1(C)CCC(CN2CCN(c3ccc(C(=O)NS(=O)(=O)c4ccc(NCC5CCOCC5)c([N+](=O)[O-])c4)c(Oc4cnc5[nH]ccc5c4)c3)CC2)=C(c2ccc(Cl)cc2)C1 [Venetoclax] (first compound max 1 µM, 7x7, partner max 1 µM)	-0.0221
CC(=O)c1c(C)c2cnc(Nc3ccc(N4CCNCC4)cn3)nc2n(C2CCCC2)c1=O [Palbociclib] + Cc1c2c(nn1C)CSCc1cc(n(C)n1)CSc1cc(c3ccccc3c1)OCCCc1c(C(=O)O)n(C)c3c-2c(Cl)ccc13 [AZD5991] (first compound max 10 µM, 7x7, partner max 1 µM)	-0.0199

###

Entries and their Bliss excess
# System: RCM-1 (Colorectal Carcinoma)
# Experiment description: Bliss excess, mean over the matrix (fraction); higher = more synergy

Molecule	Bliss excess
COc1cccc(OCCCN)c1-c1cc(Nc2cnc(C#N)cn2)n[nH]1 [Prexasertib] + Cc1cc2ncnn2cc1Nc1ncc2c(n1)n(C1CCOCC1)c(=O)n2C [AZD7648] (first compound max 1 µM, 7x7, partner max 10 µM)	-0.0166
N#Cc1cnc(Nc2cc(NC[C@H]3CNCCO3)c(C(F)(F)F)cn2)cn1 [SRA737] + O=c1[nH]cc(F)c(=O)[nH]1 [5-Fluorouracil] (first compound max 10 µM, 7x7, partner max 20 µM)	-0.0009
C=CCn1c(=O)c2cnc(Nc3ccc(N4CCN(C)CC4)cc3)nc2n1-c1cccc(C(C)(C)O)n1 [AZD1775] + CCc1c2c(nc3ccc(O)cc13)-c1cc3c(c(=O)n1C2)COC(=O)[C@]3(O)CC [SN-38] (first compound max 1 µM, partner max 0.3 µM)	-0.0402
Cn1cnc2c(F)c(Nc3ccc(Br)cc3Cl)c(C(=O)NOCCO)cc21 [Selumetinib] + CCN(CCO)CCCOc1ccc2c(Nc3cc(CC(=O)Nc4cccc(F)c4)[nH]n3)ncnc2c1 [AZD2811] (first compound max 10 µM, 7x7, partner max 1 µM)	-0.0259
